tested on: AR mRNA; test: Dose-dependent antisense inhibition of human AR in HuVEC cells (electroporation, qRT-PCR RTS3559, IC50); assay type: cell-based; conditions: Table 32; 46.9 nM, HuVEC, electroporation, approximately 16 hours
Oligonucleotides are written 5' to 3', each unit as a sugar letter and its base; * is a phosphorothioate linkage, no mark a phosphodiester; rarer units and linkages stand in square brackets, end groups in braces. Plain capitals give the bases only. k = constrained ethyl (cEt); [5mC] = 5-methylcytosine; d = 2'-deoxy (DNA)
Measured Attribute: percent inhibition of AR, 46.9 nM (%)
// note: answer is a bare numeric in %

# Substance, percent inhibition of AR, 46.9 nM, %
records = [
    ("549458 (kG*kT*kT*dG*dA*dT*dT*dT*dA*dA*dT*dG*dG*kT*kT*kG) [compound 549458]", 19),
]

Looking up 549372 (kA*kA*kG*dT*dT*dG*dT*dA*dG*dT*dA*dG*dT*k[5mC]*kG*k[5mC]) [compound 549372] , I found its percent inhibition of AR, 46.9 nM recorded as 15

Looking up 583835 (kG*kA*kA*dG*d[5mC]*dT*dG*dT*dT*d[5mC]*d[5mC]*d[5mC]*d[5mC]*kT*kG*kG; antisense) [compound 583835] , I found its percent inhibition of AR, 46.9 nM recorded as 20

Looking up 583856 (kA*kA*k[5mC]*d[5mC]*dT*dT*dT*dG*d[5mC]*dA*dT*dT*d[5mC]*kG*kG*k[5mC]; antisense) [compound 583856] , I found its percent inhibition of AR, 46.9 nM recorded as 31

---

tested on: AR mRNA; experiment: Dose-dependent antisense inhibition of human AR in HuVEC cells (electroporation, qRT-PCR RTS3559, IC50); type: cell-based; details: 500.0 nM; HuVEC, ~16 h; Table 10
Oligonucleotides are written 5' to 3', each unit as a sugar letter and its base; * is a phosphorothioate linkage, no mark a phosphodiester; rarer units and linkages stand in square brackets, end groups in braces. Plain capitals give the bases only. e = 2'-O-(2-methoxyethyl) (MOE); k = constrained ethyl (cEt); [5mC] = 5-methylcytosine; d = 2'-deoxy (DNA)
Rule: percent inhibition of AR of 60% or more gives Yes; anything lower gives No.

# Substance, Classification
records = [
    ("569227 (antisense eT*eG*kA*kT*kT*dT*dA*dA*dT*dG*dG*dT*kT*kG*k[5mC]*eA) [compound 569227]", "No"),
    ("549458 (kG*kT*kT*dG*dA*dT*dT*dT*dA*dA*dT*dG*dG*kT*kT*kG) [compound 549458]", "Yes"),
    ("569236 (antisense eT*kG*kA*kT*dT*dT*dA*dA*dT*dG*dG*kT*kT*kG*e[5mC]*eA) [compound 569236]", "Yes"),
    ("579667 (antisense eT*kT*kG*eA*eT*kT*kT*dA*dA*dT*dG*dG*dT*dT*kG*k[5mC]) [compound 579667]", "No"),
    ("579666 (antisense eT*kG*kA*eT*eT*kT*kA*dA*dT*dG*dG*dT*dT*dG*k[5mC]*kA) [compound 579666]", "Yes"),
]

Could you now look at the following substance, please?
Query: Tell me whether percent inhibition of AR is at least 60% here: 569228 (antisense eT*eT*kG*kA*kT*dT*dT*dA*dA*dT*dG*dG*kT*kT*kG*e[5mC]) [compound 569228]
Response: Yes

---

pIC50 values, listed per item
test system: AR mRNA; assay: Dose-dependent antisense inhibition of human AR in HuVEC cells (electroporation, qRT-PCR RTS3559, IC50); type: cell-based; details: Table 29; HuVEC, electroporation, approximately 16 hours
Oligonucleotides are written 5' to 3', each unit as a sugar letter and its base; * is a phosphorothioate linkage, no mark a phosphodiester; rarer units and linkages stand in square brackets, end groups in braces. Plain capitals give the bases only. k = constrained ethyl (cEt); [5mC] = 5-methylcytosine; d = 2'-deoxy (DNA)
In textbook form, pIC50 equals minus log to base ten of the concentration in mol/L.

# Substance, pIC50
data = [
    ("583609 (antisense k[5mC]*kA*kG*d[5mC]*dT*dA*dG*d[5mC]*dT*d[5mC]*dG*d[5mC]*d[5mC]*k[5mC]*kG*k[5mC]) [compound 583609]", 6.44),
]

Looking up 583564 (antisense kG*k[5mC]*kT*dT*d[5mC]*d[5mC]*dT*d[5mC]*d[5mC]*dG*dA*dG*dT*k[5mC]*kT*kT) [compound 583564] , I found its pIC50 recorded as 6.28

Looking up 583583 (antisense kG*kA*k[5mC]*dT*dG*dA*dG*dG*d[5mC]*dA*dG*d[5mC]*dT*kG*k[5mC]*kG) [compound 583583] , I found its pIC50 recorded as 6.10

Looking up 549458 (kG*kT*kT*dG*dA*dT*dT*dT*dA*dA*dT*dG*dG*kT*kT*kG) [compound 549458] , I found its pIC50 recorded as 6.96

---

Percent inhibition of C4-2B MR cell proliferation values, listed per item
tested on: C4-2B MR cells; assay: Proliferation of MDV3100-resistant C4-2B cells (CellTiter 96); assay type: cell-based, human; conditions: 0.04 μM, 6 days
Oligonucleotides are written 5' to 3', each unit as a sugar letter and its base; * is a phosphorothioate linkage, no mark a phosphodiester; rarer units and linkages stand in square brackets, end groups in braces. Plain capitals give the bases only. e = 2'-O-(2-methoxyethyl) (MOE); l = locked nucleic acid (LNA); k = constrained ethyl (cEt); [5mC] = 5-methylcytosine; d = 2'-deoxy (DNA)
// note: answer is a bare numeric in %

For orientation, consider the following solved cases.
# Substance, Unit Abbrev, Reported Value
measured = [
    ("549372 (kA*kA*kG*dT*dT*dG*dT*dA*dG*dT*dA*dG*dT*k[5mC]*kG*k[5mC]) [compound 549372]", "%", 0),
    ("554221 (ACCAAGTTTCTTCAGC; sugars from the 5' end l3 d10 l3, all phosphorothioate, methylation of C not given here) [compound 554221]", "%", 11),
    ("549434 (k[5mC]*kT*kA*dA*dA*d[5mC]*dT*dT*d[5mC]*d[5mC]*d[5mC]*dG*dT*kG*kG*k[5mC]) [compound 549434]", "%", 0),
    ("549458 (kG*kT*kT*dG*dA*dT*dT*dT*dA*dA*dT*dG*dG*kT*kT*kG) [compound 549458]", "%", 8),
]

Lab note: next substance to report on.
Looking up 347526 (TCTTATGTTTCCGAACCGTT; sugars from the 5' end e5 d10 e5, backbone and methylation of C not given here) [compound 347526] , I found its Percent inhibition of C4-2B MR cell proliferation recorded as 11

---

Percent inhibition of LMR20 cell proliferation values, listed per item
test system: LMR20 cells; assay: Proliferation of MDV3100-resistant LMR20 cells (MTT; with R1881 or DHT); type: cell-based, human; conditions: CSS, ASO 1.0 μM, 5 days

For orientation, consider the following solved cases.
# Seq, Reported Value
measured = [
    ("ACCAAGTTTCTTCAGC (LNA gapmer, phosphorothioate backbone, further chemistry not given here) [ISIS 554221, 3-10-3 LNA gapmer, phosphorothioate backbone, targeted to exon 4 of AR; benchmark, reference compound]", "2%"),
    ("TTGATTTAATGGTTGC [ISIS 560131] (MOE and (S)-cEt gapmer chemistry, further chemistry not given here) [targets intron 1]", "9%"),
    ("GTTGATTTAATGGTTG (all phosphorothioate, sugars by position not given here; further chemistry not fully specified) [ISIS 549458]", "0%"),
]

Lab note: next sequence to report on.
Looking up TGATTTAATGGTTGCA [ISIS 569236] (cEt/MOE gapmer chemistry, further chemistry not given here) [targets intron 1] , I found its Percent inhibition of LMR20 cell proliferation recorded as 0%

---

percent inhibition of AR values, listed per item
system: AR mRNA; experiment: Dose-dependent antisense inhibition of human AR in HuVEC cells (electroporation, qRT-PCR RTS3559, IC50); assay type: cell-based; conditions: 62.5 nM; HuVEC, ~16 h; Table 11
Oligonucleotides are written 5' to 3', each unit as a sugar letter and its base; * is a phosphorothioate linkage, no mark a phosphodiester; rarer units and linkages stand in square brackets, end groups in braces. Plain capitals give the bases only. e = 2'-O-(2-methoxyethyl) (MOE); k = constrained ethyl (cEt); d = 2'-deoxy (DNA)

The observed percent inhibition of AR for 579669 (antisense eG*kG*kT*eT*eG*kA*kT*dT*dT*dA*dA*dT*dG*dG*kT*kT) [compound 579669] when tested with AR mRNA stands at 24%

The observed percent inhibition of AR for 579672 (antisense eG*kT*kT*eG*kA*kT*dT*dT*dA*dA*dT*dG*dG*kT*kT*kG) [compound 579672] when tested with AR mRNA stands at 9%

These entries and their values trace back to patent USRE48461E1.
